Measured IC50 on UniProtKB O42275 follows.
Sequence (O42275 24-633): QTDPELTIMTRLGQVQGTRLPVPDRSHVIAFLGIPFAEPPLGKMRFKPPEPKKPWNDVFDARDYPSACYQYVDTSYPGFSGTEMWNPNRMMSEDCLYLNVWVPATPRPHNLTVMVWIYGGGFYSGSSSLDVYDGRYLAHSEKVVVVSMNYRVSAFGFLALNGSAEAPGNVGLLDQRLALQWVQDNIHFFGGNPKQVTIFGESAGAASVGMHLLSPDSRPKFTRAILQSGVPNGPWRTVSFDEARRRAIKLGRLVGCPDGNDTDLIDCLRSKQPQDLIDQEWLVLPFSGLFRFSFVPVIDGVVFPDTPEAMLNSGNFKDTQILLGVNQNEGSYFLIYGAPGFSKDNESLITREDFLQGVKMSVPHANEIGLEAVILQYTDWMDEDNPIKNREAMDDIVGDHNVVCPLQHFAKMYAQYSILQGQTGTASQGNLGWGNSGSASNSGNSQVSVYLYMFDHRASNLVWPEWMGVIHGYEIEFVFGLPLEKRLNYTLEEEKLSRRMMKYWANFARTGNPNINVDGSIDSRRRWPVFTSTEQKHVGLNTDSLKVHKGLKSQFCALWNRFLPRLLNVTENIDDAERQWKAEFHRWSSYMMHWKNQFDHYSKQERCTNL
Numbers only; they are read as µM.

>>> df
                                     smiles  unit_info  test_result
0  CCOc1ccc(C=NNC(=S)NCC(=O)c2cccc(C)c2)cc1         µM          295
1  CCOc1ccc(C=NNC(=S)NCC(=O)c2ccc(Cl)cc2Cl)cc1         µM          276
2  O=C(CNC(=S)NN=Cc1ccc([N+](=O)[O-])cc1)c1ccccc1Br         µM          115

Entry under review: `CCOc1ccc(C=NNC(=S)NCC(=O)c2ccc(Br)cc2)cc1` . Reported IC50? 160

Also `CCOc1ccc(C=NNC(=S)NCC(=O)c2ccc(Cl)cc2)cc1` , if possible. 141

Also `Cc1ccc(C(=O)CNC(=S)NN=Cc2ccc([N+](=O)[O-])cc2)cc1` , if possible. 280

Also `CCOc1ccc(C=NNC(=S)NCC(=O)c2ccccc2)cc1` , if possible. 220

---

Molecular target: equine BChE (Equus caballus, UniProt P81908)
Sequence (P81908 whole entry): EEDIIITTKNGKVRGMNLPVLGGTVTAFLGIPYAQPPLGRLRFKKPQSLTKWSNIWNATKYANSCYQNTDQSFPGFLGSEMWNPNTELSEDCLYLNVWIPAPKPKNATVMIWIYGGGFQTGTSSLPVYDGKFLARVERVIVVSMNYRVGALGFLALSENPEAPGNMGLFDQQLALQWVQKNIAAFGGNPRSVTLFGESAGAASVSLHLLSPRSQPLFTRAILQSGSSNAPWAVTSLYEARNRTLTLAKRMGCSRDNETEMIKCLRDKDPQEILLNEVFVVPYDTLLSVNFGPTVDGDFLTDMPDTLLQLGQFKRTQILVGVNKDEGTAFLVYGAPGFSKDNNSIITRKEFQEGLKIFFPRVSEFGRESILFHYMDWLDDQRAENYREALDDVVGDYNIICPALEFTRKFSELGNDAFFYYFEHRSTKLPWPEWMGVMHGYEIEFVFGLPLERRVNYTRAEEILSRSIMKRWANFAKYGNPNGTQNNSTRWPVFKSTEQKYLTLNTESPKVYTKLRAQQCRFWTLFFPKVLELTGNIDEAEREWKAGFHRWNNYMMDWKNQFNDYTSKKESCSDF
Recorded IC50, one value per entry.
Numbers only; they are read as µM.

In [3]: df
Out[3]:
                                     smiles  test_result
0     CCOc1ccc(C=NNC(=S)NCC(=O)c2ccccc2)cc1          260
1  Cc1ccc(C(=O)CNC(=S)NN=Cc2ccc([N+](=O)[O-])cc2)cc1          260
2  CCOc1ccc(C=NNC(=S)NCC(=O)c2ccc(Br)cc2)cc1          190
3  O=C(CNC(=S)NN=Cc1ccc([N+](=O)[O-])cc1)c1ccccc1Br          150

Field: next compound
Entry under review: `CCOc1ccc(C=NNC(=S)NCC(=O)c2ccccc2O)cc1` . Reported IC50? 147
